Recorded measurements of pIC50, one per entry
Target: human FSH receptor (Homo sapiens)
Sequence (P23945 18-695): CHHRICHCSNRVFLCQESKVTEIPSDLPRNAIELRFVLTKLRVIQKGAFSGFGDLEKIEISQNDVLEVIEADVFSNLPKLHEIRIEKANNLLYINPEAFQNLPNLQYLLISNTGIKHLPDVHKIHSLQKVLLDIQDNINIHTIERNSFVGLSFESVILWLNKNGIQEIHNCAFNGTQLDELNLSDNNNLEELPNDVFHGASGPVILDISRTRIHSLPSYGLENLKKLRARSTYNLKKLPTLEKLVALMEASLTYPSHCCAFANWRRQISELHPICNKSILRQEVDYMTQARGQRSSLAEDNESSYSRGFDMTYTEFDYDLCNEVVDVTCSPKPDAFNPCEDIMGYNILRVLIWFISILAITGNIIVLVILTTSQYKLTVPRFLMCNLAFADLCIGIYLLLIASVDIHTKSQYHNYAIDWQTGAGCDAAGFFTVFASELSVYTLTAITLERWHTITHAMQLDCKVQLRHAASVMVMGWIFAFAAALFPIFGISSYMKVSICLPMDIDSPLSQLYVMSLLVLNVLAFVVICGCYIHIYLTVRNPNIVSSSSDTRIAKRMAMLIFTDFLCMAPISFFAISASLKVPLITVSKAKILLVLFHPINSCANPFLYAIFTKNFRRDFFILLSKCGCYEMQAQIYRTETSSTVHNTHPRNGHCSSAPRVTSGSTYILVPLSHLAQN
Assay: HTRF assay for measuring cAMP in cells (FSH-antagonistic effect)
Settings: hFSHR clone 16 cells (CHO cells stably transfected with the human FSH receptor), in the presence of 1e-9 mol/l hFSH, 37° C. for 2 h
pIC50: −log10 of the molar value.
measurementName: pIC50

- compound: "COC(=O)CCNC(=O)c1cccc(C#Cc2ccc(OC(C)C)c(C(=O)N[C@@H](CO)Cc3c[nH]c4ccccc34)c2)c1"
  recordedMeasurement: 7.82
- compound: "CC(C)Oc1ccc(C#Cc2ccccc2CC(=O)O)cc1C(=O)N[C@@H](CO)Cc1c[nH]c2ccccc12"
  recordedMeasurement: 5.60
- compound: "CC(C)Oc1ccc(C#Cc2ccc(N3CCNCC3)cc2)cc1C(=O)N[C@@H](CO)Cc1c[nH]c2ccccc12"
  recordedMeasurement: 5.46
- compound: "CNC(=O)c1cccc(C#Cc2ccc(Cl)c(C(=O)N[C@@H](CO)Cc3c[nH]c4ccccc34)c2)c1"
  recordedMeasurement: 5.46
- compound: "CC(C)Oc1ccc(C#Cc2ccc(-c3ccccc3)cc2)cc1C(=O)N[C@@H](CO)Cc1c[nH]c2ccccc12"
  recordedMeasurement: 5.70
- compound: "CC(C)Oc1ccc(C#Cc2ccc3c(c2)C(=O)NCC3)cc1C(=O)N[C@@H](CO)Cc1c[nH]c2ccccc12"
  recordedMeasurement: 7.52
- compound: "CC(C)Oc1ccc(C#Cc2ccc(C(=O)NCCN3CCNC(=O)C3)cc2)cc1C(=O)N[C@@H](CO)Cc1c[nH]c2ccccc12"
  recordedMeasurement: 7.46
- compound: "CC(C)Oc1ccc(C#Cc2ccccc2)cc1C(=O)NC(CO)Cc1c[nH]c2cc(F)ccc12 (centres unmarked)"
  recordedMeasurement: 7.00
- compound: "CNC(=O)CCCc1ccc(C#Cc2ccc(OC(C)C)c(C(=O)N[C@@H](CO)Cc3c[nH]c4ccccc34)c2)cc1"
  recordedMeasurement: 7.35
- compound: "CC(C)Oc1ccc(C#Cc2ccc(C(=O)O)o2)cc1C(=O)N[C@@H](CO)Cc1c[nH]c2ccccc12"
  recordedMeasurement: 7.22
- compound: "CC(C)Oc1ccc(C#Cc2ccc3c(c2)C(=O)NC3)cc1C(=O)N[C@@H](CO)Cc1c[nH]c2ccccc12"
  recordedMeasurement: 7.82
- compound: "CC(C)Oc1ccc(C#Cc2ccsc2)cc1C(=O)N[C@@H](CO)Cc1c[nH]c2ccccc12"
  recordedMeasurement: 7.15
- compound: "Cc1ccc(C)c(C#Cc2ccc(OC(C)C)c(C(=O)N[C@@H](CO)Cc3c[nH]c4ccccc34)c2)c1"
  recordedMeasurement: 7.52
- compound: "CC(C)Oc1ccc(C#Cc2cnc(N3CCOCC3)nc2)cc1C(=O)N[C@@H](CO)Cc1c[nH]c2ccccc12"
  recordedMeasurement: 6.52

###

biological target: human FSH receptor (Homo sapiens, UniProt P23945); experiment: HTRF assay for measuring cAMP in cells (FSH-antagonistic effect); settings: hFSHR clone 16 cells (CHO cells stably transfected with the human FSH receptor), in the presence of 1e-9 mol/l hFSH, 37° C. for 2 h
pIC50: −log10 of the molar value.
measurementName: pIC50

- molecule: "CC(C)Oc1ccc(C#Cc2ccc(-c3cc[nH]n3)cc2)cc1C(=O)N[C@@H](CO)Cc1c[nH]c2ccccc12 [Example 142]"
  recordedMeasurement: 8.00
- molecule: "CC(C)Oc1ccc(C#Cc2ccc(C3(O)CCNCC3)cc2)cc1C(=O)N[C@@H](CO)Cc1c[nH]c2ccccc12 [Example 106]"
  recordedMeasurement: 5.40
- molecule: "Cc1cc(C)cc(C#Cc2ccc(OC(C)C)c(C(=O)N[C@@H](CO)Cc3c[nH]c4ccccc34)c2)c1 [Example 40]"
  recordedMeasurement: 6.30
- molecule: "CC(C)Oc1ccc(C#Cc2ccc3ccccc3c2)cc1C(=O)N[C@@H](CO)Cc1c[nH]c2ccccc12 [Example 52]"
  recordedMeasurement: 7.10
- molecule: "CC(C)Oc1ccc(C#Cc2cccc(C(=O)NCCS(N)(=O)=O)c2)cc1C(=O)N[C@@H](CO)Cc1c[nH]c2ccccc12 [Example 167]"
  recordedMeasurement: 7.64
- molecule: "CC(C)Oc1ccc(C#Cc2ccc(C#N)cc2)cc1C(=O)N[C@@H](CO)Cc1c[nH]c2ccccc12 [Example 110]"
  recordedMeasurement: 6.46
- molecule: "CC(C)Oc1ccc(C#Cc2ccc(OCCN(C)C)cc2)cc1C(=O)N[C@@H](CO)Cc1c[nH]c2ccccc12 [Example 103]"
  recordedMeasurement: 5.89
- molecule: "CC(C)Oc1ccc(C#Cc2cncc(C(N)=O)c2)cc1C(=O)N[C@@H](CO)Cc1c[nH]c2ccccc12 [Example 97]"
  recordedMeasurement: 7.82
- molecule: "CC(C)Oc1ccc(C#Cc2ccc3c(c2)C(=O)NC3=O)cc1C(=O)N[C@@H](CO)Cc1c[nH]c2ccccc12 [Example 156]"
  recordedMeasurement: 7.82
- molecule: "CC(C)Oc1ccc(C#Cc2ccc3oc(C(=O)O)cc3c2)cc1C(=O)N[C@@H](CO)Cc1c[nH]c2ccccc12 [Example 127]"
  recordedMeasurement: 7.05
- molecule: "CNC(=O)c1ccc(C#Cc2cccc(C(=O)N[C@@H](CO)Cc3c[nH]c4ccccc34)c2)cc1 [Example 72]"
  recordedMeasurement: 5.60
- molecule: "CC(C)Oc1ccc(C#Cc2cccc(-c3nnn[nH]3)c2)cc1C(=O)N[C@@H](CO)Cc1c[nH]c2ccccc12 [Example 148]"
  recordedMeasurement: 7.52
- molecule: "CC(C)Oc1ccc(C#Cc2ccc(N3CCNC3=O)cc2)cc1C(=O)N[C@@H](CO)Cc1c[nH]c2ccccc12 [Example 146]"
  recordedMeasurement: 7.15
- molecule: "CC(C)Oc1ccc(C#Cc2cccc(S(N)(=O)=O)c2)cc1C(=O)N[C@@H](CO)Cc1c[nH]c2ccccc12 [Example 123]"
  recordedMeasurement: 6.60
- molecule: "CC(C)Oc1ccc(C#Cc2ccc3[nH]ncc3c2)cc1C(=O)N[C@@H](CO)Cc1c[nH]c2ccccc12 [Example 113]"
  recordedMeasurement: 7.60
- molecule: "COC(=O)CCCCCNC(=O)c1ccc(C#Cc2ccc(OC(C)C)c(C(=O)N[C@@H](CO)Cc3c[nH]c4ccccc34)c2)cc1 [Example 171]"
  recordedMeasurement: 7.60

###

target: human FSH receptor (Homo sapiens); assay: HTRF assay for measuring cAMP in cells (FSH-antagonistic effect); settings: hFSHR clone 16 cells (CHO cells stably transfected with the human FSH receptor), in the presence of 1e-9 mol/l hFSH, 37° C. for 2 h
compounds and their reported IC50

- compound: "CC(C)Oc1ccc(C#Cc2ccc3c(c2)CCNC3=O)cc1C(=O)N[C@@H](CO)Cc1c[nH]c2ccccc12"
  IC50 / nM: 6
- compound: "CC(C)Oc1ccc(C#Cc2cncnc2)cc1C(=O)N[C@@H](CO)Cc1c[nH]c2ccccc12"
  IC50 / nM: 150
- compound: "CC(C)Oc1ccc(C#Cc2ccccc2C(F)(F)F)cc1C(=O)N[C@@H](CO)Cc1c[nH]c2ccccc12"
  IC50 / nM: 25
- compound: "CC(C)Oc1ccc(C#Cc2cncc(C3=NNC(=O)C3)c2)cc1C(=O)N[C@@H](CO)Cc1c[nH]c2ccccc12"
  IC50 / nM: 10
- compound: "CC(C)Oc1ccc(C#Cc2cccc(CN3CCNCC3)c2)cc1C(=O)N[C@@H](CO)Cc1c[nH]c2ccccc12"
  IC50 / nM: 2000
- compound: "CC(C)Oc1ccc(C#Cc2ccc(N3CCCC3=O)cc2)cc1C(=O)N[C@@H](CO)Cc1c[nH]c2ccccc12"
  IC50 / nM: 80
- compound: "CNC(=O)c1cccc(C#Cc2ccc(Cl)c(C(=O)NC(CO)Cc3c[nH]c4cc(F)ccc34)c2)c1 (stereo not shown)"
  IC50 / nM: 700

Data credit: patent US20080221195A1
